src = the NTF2 design screens of Basanta et al. (2020)

- protocol: protease stability score; higher = more stable; yeast display proteolysis, trypsin and chymotrypsin;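 further: relative to predicted unfolded state with 0 unfolded-like and 1 meaning tenfold more protease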
protease stability score below 0.7 gives Criterion not met; protease stability score at or above it gives Criterion met.

{"monomer-sequence": "DEHEKEWQELFRLAAHVLETGDEKMLQHLIDPSARTRINGKYTHGWEESARTLHEIRRRLGIDHEEITDHEIQGDKVIIHGRSQVGDKNFTVNIEWIIVNGRLKSVNFTIH", "assigned-label": "Criterion not met"}
{"monomer-sequence": "DEREKETERMLELFIKVLLTGNEHDLMKLADPHVKLDINGREIHGREHLEEMWRHLWIDDSKRREVRNVGEWSHIYGETDGTFNGKKVRDTVEIRLYIVNGKAHRIYIIER", "assigned-label": "Criterion not met"}
{"monomer-sequence": "EEEREIHQRHWEERLRAHRTGDEETLERQADPDVRIDFNGVELHGREVAVRFLLEMRLHDVDWRRIHTFDGRVDVDVIVDGEYNGRRYRSTFTLVIIKVNGQWLVHSMEFK", "assigned-label": "Criterion not met"}
{"monomer-sequence": "DEEHHNAREMLKLFLDFMQTGDWESHLEMADPNVKVIIDGQEFIGRESSERLIREIRIKRHHLEEERIEVQGDKAIVRLRGRRDGNVNGVETETEVHIRIHFKKIDGRWVMTSVHIEVV", "assigned-label": "Criterion met"}
{"monomer-sequence": "SEEEHKIRKLLEDLANFIRTGDEHRINELLDPNVMIDINGQKFHGRESLETVYHEWLKRVDHIEDLRIDDISKQGEFLIMHANMTLRQGDKHHRENVHIIILKVDGRWIMTSILFR", "assigned-label": "Criterion met"}
